test system: MS2 coat protein; assay: apparent KD of MS2 coat protein; designed switch direction (-1 OFF switch, 1 ON switch): -1; higher = weaker reporter binding; conditions: Eterna round: R95; input ligand: FMN 200 uM
property: apparent KD of MS2 coat protein (nM)
Please reply with the bare figure in nM and do not write the unit itself.

Below: 10 sequences and their reported apparent KD of MS2 coat protein.
UUUUAACAUGAGGAUCACCCAUGUGAGGAUAUCAUUUUUUUUUUUUUUUUUUUUUUUUUGAGAAGGCACAUUUU [My solution] (puzzle: Exclusion 1) | 11.9
GGUUGACAUGAGGAUCACCCAUGUGAGGAUAUGCGAGAGAAAAAAGUGAGGAAGUAAUGCAGAAGGCGCUGUCG [salish99-ex1_r3_017] (puzzle: Exclusion 1) | 132
AGAAGUAGUAACCGAUCCUACAUGAGGAUCACCCAUGUAGCUAGACGUGCACGCGAUGCUCGUCAGACUACCAGAUG [salish99_TOv1_r3_027] (puzzle: Sensor v3, turn-off variant 1) | 171
CAUGGAUGUGAGCCGCAUUACAUGAGGAUCACCCAUGUCAACAAGCUUUUUGCUUGUCUUACGCGGCGGCAUCUAAA [Abebies] (puzzle: Sensor v3, turn-off variant 1) | 11.3
AAGAAACAUGAGGAUCACCCAUGUCAGGAUAUCUCGAAAAGCAUAGAAAUAUGCGAAGAGAGAAGGGACUGCCC [ChP Ext 10-04-2015 #2] (puzzle: Exclusion 1) | 20.8
CUGGUCCGAGGAUAUAUUAAGUGAAACAUGAGGAUCACCCAUGUAAUUUGAUGGAUGUAAAUAGAAGGCGGACUAG [JL-ex5-3.09] (puzzle: Exclusion 5) | 29.4
UUAUUACAAGCAAGAUCCUACAUGAGGAUCACCCAUGUGCUCGUCUUGUAAGGUACAGUGACGAAAGUCACAGUACC [Sensor 3, v1 - 000] (puzzle: Sensor v3, turn-off variant 1) | 24.7
GCAUGGCGAGGAUAUACAUGAGGAUCACCCAUGUGAGAAUAAUAAGUGAGGAAGAAAAGUAGAAGGCGCUGUGG [Mat - Exclusion 3 - Mod of Salish D64] (puzzle: Exclusion 3) | 250
AAAAAGCGAGGAUAUGCAUAAGGACCCGGGCGGGAAGUCGGACAUGAGGAUCACCCAUGUAGAAGGCGCAAAAA [Exclss2-V] (puzzle: Exclusion 2) | 25.5
AACAAACAUGAGGAUCACCCAUGUGAGGAUAUGCAACAAAACAAAACAAAACAAAACAGCAGAAGGCACACAAC [A-G Solution By Eric] (puzzle: Exclusion 1) | 17.2

Requested read-out: apparent KD of MS2 coat protein. Entry: GCCAGAGCAGGAUAUUCAAUAAUUCACAUGAGGAUCACCCAUGUCGAGCGAAAGCUCGAGGGAGAAGGGCUCUGGC [Fiskers Ex 5 - 6] (puzzle: Exclusion 5)
14.3

// repeat for UUUAAUUUUUUUUUUUUACAAGCUUUUUGCUCGUCUUAUACAUGAGGAUCACCCAUGUGGGUGAAAGGUAAAUUAUC [JMF 64] (puzzle: Sensor v3, turn-off variant 2) and report
46.8

// repeat for AAGAAACAUGAGGAUCACCCAUGUGAGGAUAUGUAAAAGAAAAUAAAAUAAAUAAGAAACAGAAGGCACAAAGG [Mat - Mod of Hog D19] (puzzle: Exclusion 1) and report
53.2

// repeat for AGAGAGUCAGGAUAUCGAAGGUAGAGAAGAGGAGAGUGGUACGAGAAGGGACAUGAGGAUCACCCAUGUAGGUG [JR_Exclusion4)Sub012] (puzzle: Exclusion 4) and report
193

// repeat for CGGCAACAUGUCAGGAUAUAUGUACCGCUGGGUGGAUAGAAGGGACAUGAGGAUCACCCAUGUCGUCCAGCCGG [Tisove] (puzzle: Brourd's mod of Exclusion 4) and report
19.4

// repeat for GAUACCCAAGUCAGGAUAUCGGGAUACGAAAGUCACGAGAAGGGACAUGAGGAUCACCCAUGUAAAUAAAUAAA [Arege] (puzzle: Brourd's mod of Exclusion 4) and report
62.7

// repeat for AAGAAACAUGAGGAUCACCCAUGUGAGGAUAUGAUAAAGAAAAGAAAAGAAAGAAGAUUCAGAAGGCACAAAGG [salish99-ex1_r3_034] (puzzle: Exclusion 1) and report
62.3

// repeat for GCGAAAGCAAGCAGGUGAAACAUGAGGAUCACCCAUGUCCUCAUUUGCUCGUCUUAUAAGCUAUGCGAAAGCAUAGC [Sensor 3, v1 - 3] (puzzle: Sensor v3, turn-off variant 1) and report
13.7

// repeat for CAGUACUGAGGAUAUACAUGAGGAUCACCCAUGUGUGCCAGCUAGGAAACUAGCAAAAGUAGAAGGCAGUACUG [salish99_ex3_r3_082] (puzzle: Exclusion 3) and report
102

// repeat for AUCGUGAAGAAGGAUAUGGGCCCGGUAAAACGACUAGAAGGUCUGACAUGAGGAUCACCCAUGUGAUACCAAAA [Veve] (puzzle: Exclusion 6) and report
34.1

// repeat for AGUACUAGCACGAAAGUGUUAGUACAAUAAGCUUGUGAAACAUGAGGAUCACCCAUGUCCUCAUAAGCUCGUCUUAU [salish99_TOv2_r3_020] (puzzle: Sensor v3, turn-off variant 2) and report
18.2
